Entry source: patent US20240182563A1

Target or system: T1, human CNTN4 antigen expressed on the cell membrane of 293FT cells (human, UniProt Q8IWV2 19-1000)
T1 construct: whole, on cells; also called Human CNTN4 transfected cell
T1 sequence (looked up): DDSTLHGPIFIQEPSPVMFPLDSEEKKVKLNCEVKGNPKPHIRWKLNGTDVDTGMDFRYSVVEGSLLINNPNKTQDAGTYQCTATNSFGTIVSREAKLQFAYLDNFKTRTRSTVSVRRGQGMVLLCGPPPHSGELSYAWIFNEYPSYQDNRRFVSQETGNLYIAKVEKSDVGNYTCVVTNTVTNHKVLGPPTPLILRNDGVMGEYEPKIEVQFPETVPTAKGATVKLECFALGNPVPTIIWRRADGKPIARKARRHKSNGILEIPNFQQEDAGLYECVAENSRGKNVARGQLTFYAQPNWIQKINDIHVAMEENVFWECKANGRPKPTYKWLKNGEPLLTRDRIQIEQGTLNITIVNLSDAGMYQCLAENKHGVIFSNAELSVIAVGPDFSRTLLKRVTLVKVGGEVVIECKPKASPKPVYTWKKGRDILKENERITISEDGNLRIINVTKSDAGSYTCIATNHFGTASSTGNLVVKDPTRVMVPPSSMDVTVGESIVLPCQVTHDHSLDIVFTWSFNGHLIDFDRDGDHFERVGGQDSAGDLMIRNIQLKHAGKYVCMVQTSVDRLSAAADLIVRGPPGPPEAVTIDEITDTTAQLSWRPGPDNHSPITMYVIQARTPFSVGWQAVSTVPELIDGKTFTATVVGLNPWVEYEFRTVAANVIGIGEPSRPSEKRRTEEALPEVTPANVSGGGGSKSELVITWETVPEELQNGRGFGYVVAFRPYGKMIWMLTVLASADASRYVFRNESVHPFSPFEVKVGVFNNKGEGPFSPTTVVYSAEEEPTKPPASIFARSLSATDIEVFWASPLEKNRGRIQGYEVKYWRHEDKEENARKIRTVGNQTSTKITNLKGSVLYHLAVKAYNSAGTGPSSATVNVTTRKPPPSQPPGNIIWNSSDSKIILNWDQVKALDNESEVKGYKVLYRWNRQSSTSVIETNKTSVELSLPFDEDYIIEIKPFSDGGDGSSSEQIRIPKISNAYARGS
Procedure summary: FACS, 293FT cells transfected with human CNTN4, 40 ug/mL, anti-hFc-PE
Consider the following binders; for each one, report its Shift %.
One number for each entry, in %.

Binder	Units label	Shift %
anti-CNTN4 IgG A13WB73 (antibody, V domains shown, human IgG4 (S228P)) VH: AVTLDESGGGLHTPGGVLSLVCKASGFTFSSYGMAWVRQAPGKGLEWVAGITSSGSSAGYGPAVKGRATISRDNGQSTVRLQLNNLRAEDTATYYCAKDGYIYSGADSDSIDAWGHGTEVIVSS VL: ALTQPSSVSANLGGTVEITCSGGYSGYGWYQQMSPGSAPVTLTYYNDKRPSNIPSRFSGSKSGSTATLAITGVQAEDEAVYYCGSWDTSTNTPIFGAGTTLTVL	%	86.4

Lab note: next binder to report on.
Can you share its Shift %? I mean this binder: anti-CNTN4 IgG A35SF3 (antibody, V domains shown, human IgG4 (S228P)) VH: AVTLDESGGGLQTPGGGLSLVCKASGFTFSSYGMAWVRQAPGKGLEWVAGITSSGSSAGYGPAVKGRATISRDNGQSTVRLQLNNLRAEDTATYYCAKDGYIYSGADSDSIDAWGHGTEVIVSS VL: ALTQPSSVSANLGGTVEITCSGSSGSYGWYQQKAPGSAPVTVIYDNTNRPSDIPSRFSGSKSGSTGTLTITGVQAEDEAVYFCGGYDSSTIFGAGTTLTVL
81.9
